Molecular target: T1, hArtemin-MMH (human)
T1 construct: also called hARTN.mmh; hARTN (A108-G220).mmh
T1 chain: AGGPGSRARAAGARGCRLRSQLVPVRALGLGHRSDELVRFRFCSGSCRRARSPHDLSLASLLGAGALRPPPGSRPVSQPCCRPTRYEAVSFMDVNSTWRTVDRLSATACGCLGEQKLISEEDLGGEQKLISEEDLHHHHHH
Test: SPR Biacore T200, hArtemin-MMH captured by anti-myc mAb, mAb injected, 25 C
readout-label: t½ (min)
Response body: numeric value in min, unit text excluded.

INSERT INTO measurements (binder, readout_label, units, measured_value) VALUES
  ('H4H33335P (antibody, human IgG4 S228P, kappa, V domains shown, Fully human antibody; also called Artemin mAb; anti-ARTN antibody) VH: EVQLVESGGGLVQPGGSLRLSCAASGFTFSSYDMHWVRQATGKGLEWVSTIDTAGDTYYPGSVKGRFTISRENAKNSLYLQMNSLRAGDTAVYYCARDGELELQGYFDLWGRGTLVTVSS VL: DIQMTQSPSSLSASVGDRVTITCRASQIISIYLNWYQQKPGKAPKLLIYAASSLQSGVPSRFSGSGSGTDFTLTISSLQPEDFATYYCQQSYTTPLTFGGGTKVEIKR', 't½', 'min', 61),
  ('H4H33349P (antibody, human IgG4 S228P, kappa, V domains shown, Fully human antibody; also called Artemin mAb; anti-ARTN antibody) VH: QVQLVESGGGVVQPGRSLRLSCEASGFTFSDYDLHWVRQAPGKGLEWVAFISNDGSNEYYPKSVKGRFSISRDNSKNTLYLQMNSLRAEDTAVYHCTKERDYYYDSSGSLDYWGQGTLVTVSS VL: DIQMTQSPSSLSASVGDRVTITCRASQTINNYLNWYQQKPGKAPKLLIYTTSGLQSGVPSRFSGRGSGTDFTLAISSLQPEDFATYYCQQSYHSPFTFGPGTKVDIKR', 't½', 'min', 196),
  ('H4H33331P (antibody, human IgG4 S228P, kappa, V domains shown, Fully human antibody (human variable and constant domains) from a VELOCIMMUNE mouse; also called Artemin mAb; anti-ARTN antibody) VH: EVQLVESGGDLVQPGGSLKLSCAASGFTFSGSAMHWVRQASGKGLEWVGRIRNKVHRYATEYGASVKGRFTISRDDSKNTAYLQMNSLKIEDTAVYYCVVVVPGSIEAFDIWGQGTMVTVSS VL: DIQMTQSPSSLSASVGDRVTITCRASQSISTYLNWYQQKPGKAPNLLIYAASTLESGVPSRFSGSGSGTDFTLTISSLQPEDFEIYYCQQSYNIPWTFGQGTKVEIKR', 't½', 'min', 32);

Lab note: next binder to report on.
Query: Using the record for H4H33336P (antibody, human IgG4 S228P, kappa, V domains shown, Fully human antibody; also called Artemin mAb; anti-ARTN antibody) VH: QVQLVESGGGVVQPGRSLRLSCVASGFILSHYGMHWVRQAPGKGLEWVAVIWFDGTNKYYADSVKGRFTVSRDNSKNTLYMQMNSLRAEDTAVYYCARDPPPARRGNYNGMDVWGQGTTVTVSS VL: DIQMTQSPSSLSASVGDRVTITCRASQDIRNDLGWYQQKPGKAPKRLIFGASSLQSGVPLRFSGSGSGTEFTLTINNLQPEDFATFYCLQDNSYPWTFGQGTKVEIKR , report its t½.
Result: 308
